Cited source for all entries: paper PMC8705538

molecular target: human Glycine N-Methyltransferase (GNMT) (Homo sapiens); construct: purchased MyBioSource MBS636160; assay: HTRF methyltransferase selectivity assay, human GNMT; assay type: biochemical; conditions: 100 μM
// label 0 strictly below 40% in Percent inhibition at 100 μM, Human; label 1 otherwise

Decide: is the reported value of Percent inhibition at 100 μM, Human for CC(=O)N1N=C(c2ccc3c(c2)OCO3)OC1c1cc(-c2ccccc2)nc2ccccc12 (stereo not drawn) equal to or greater than 40%? label 1

Decide: is the reported value of Percent inhibition at 100 μM, Human for CC(=O)N1N=C(c2ccc3c(c2)OCO3)CC1c1cn(-c2ccccc2)nc1C (stereo not drawn) equal to or greater than 40%? label 0

Decide: is the reported value of Percent inhibition at 100 μM, Human for CN(Cc1cccc2cnccc12)C(=O)CCC1(CCC(=O)O)CCC(=O)N1 (stereo not drawn) equal to or greater than 40%? label 0

Decide: is the reported value of Percent inhibition at 100 μM, Human for CC(C)(C)c1csc(SCC(=O)Nc2cccc3nsnc23)n1 equal to or greater than 40%? label 1

Decide: is the reported value of Percent inhibition at 100 μM, Human for Cc1ncsc1CCC(=O)N1CCCC(C(=O)c2ccc3c4c(cccc24)CC3)C1 (stereo not drawn) equal to or greater than 40%? label 1

Decide: is the reported value of Percent inhibition at 100 μM, Human for Cc1nc(O)cc(CNc2nc3c(c(=O)[nH]2)Cc2ccccc2OC3)n1 equal to or greater than 40%? label 1

Decide: is the reported value of Percent inhibition at 100 μM, Human for COc1ccccc1CN1CC(C(=O)NCc2n[nH]c(=O)[nH]2)CCC1=O (stereo not drawn) equal to or greater than 40%? label 1

Decide: is the reported value of Percent inhibition at 100 μM, Human for O=C(CSc1nc(CC(=O)Nc2cccc3nsnc23)cs1)Nc1ccc(F)cc1 equal to or greater than 40%? label 0

Decide: is the reported value of Percent inhibition at 100 μM, Human for Cc1nc2ccc(Cl)cc2cc1C(=O)Nc1ccc(C(N)=O)cc1 equal to or greater than 40%? label 1

Decide: is the reported value of Percent inhibition at 100 μM, Human for CCN(CCSc1ccccc1)C(=O)c1cc(-c2ccncc2)n[nH]1 equal to or greater than 40%? label 0

Decide: is the reported value of Percent inhibition at 100 μM, Human for Nc1ncnc2c1ncn2[C@@H]1O[C@H](COC(=O)c2ccc(S(=O)(=O)F)cc2)[C@@H](O)[C@H]1O equal to or greater than 40%? label 1

Decide: is the reported value of Percent inhibition at 100 μM, Human for Nc1ncnc2c1ncn2[C@@H]1O[C@H](C(=O)NC2CC2)[C@@H](O)[C@H]1O equal to or greater than 40%? label 1

Decide: is the reported value of Percent inhibition at 100 μM, Human for CC(C(=O)NCCCn1ccnn1)c1n[nH]c(=O)c2ccccc12 (stereo not drawn) equal to or greater than 40%? label 0

Decide: is the reported value of Percent inhibition at 100 μM, Human for NC(=O)CC[C@H](N)C(=O)NS(=O)(=O)OC[C@H]1O[C@@H](n2cnc3c(N)ncnc32)[C@H](O)[C@@H]1O equal to or greater than 40%? label 1

Decide: is the reported value of Percent inhibition at 100 μM, Human for COc1cc(NC(=O)C2CCN(Cc3nc(-c4cccc(C)c4)no3)CC2)c(OC)cc1Cl equal to or greater than 40%? label 1

Decide: is the reported value of Percent inhibition at 100 μM, Human for CN(CCNc1nc2c(c(=O)[nH]1)Cc1ccccc1OC2)S(C)(=O)=O equal to or greater than 40%? label 1

Decide: is the reported value of Percent inhibition at 100 μM, Human for Cc1ccccc1NC(=O)c1nnn2c1NC(C(=O)O)=CC2c1ccc(C(=O)O)cc1 (stereo not drawn) equal to or greater than 40%? label 0

====

Kindly supply the reported IC50 values for the records listed here.
target: SARS-CoV-2 nsp16/nsp10 (Severe acute respiratory syndrome coronavirus 2, UniProt P0DTD1); experiment: biochemical
Give your result as the value with the unit written after it.

// Input: O=C(Cc1csc(SCC(=O)c2ccccc2)n1)Nc1cccc2nsnc12 . Output its IC50 only. 51 µM

// Input: CSC[C@H]1O[C@@H](n2cnc3c(N)ncnc32)[C@H](O)[C@@H]1O . Output its IC50 only. 1.02 µM

// Input: Nc1ncnc2c1ncn2[C@@H]1O[C@H](CSCC[C@H](N)C(=O)O)[C@@H](O)[C@H]1O [S-(5′-Adenosyl)-L-homocysteine (SAH), S-(5′-Adenosyl)-L-homocysteine, reference compound] . Output its IC50 only. 0.28 µM

// Input: O=C(CCCn1cncn1)N1CCCC(c2nc3ccccc3s2)C1 (stereo not shown) . Output its IC50 only. 197 µM

====

target: human Glycine N-Methyltransferase (GNMT) (Homo sapiens, UniProt Q14749); construct: purchased MyBioSource MBS636160; test: HTRF methyltransferase selectivity assay, human GNMT; type: biochemical; details: estimated from IC50 values
Sequence (Q14749 whole entry): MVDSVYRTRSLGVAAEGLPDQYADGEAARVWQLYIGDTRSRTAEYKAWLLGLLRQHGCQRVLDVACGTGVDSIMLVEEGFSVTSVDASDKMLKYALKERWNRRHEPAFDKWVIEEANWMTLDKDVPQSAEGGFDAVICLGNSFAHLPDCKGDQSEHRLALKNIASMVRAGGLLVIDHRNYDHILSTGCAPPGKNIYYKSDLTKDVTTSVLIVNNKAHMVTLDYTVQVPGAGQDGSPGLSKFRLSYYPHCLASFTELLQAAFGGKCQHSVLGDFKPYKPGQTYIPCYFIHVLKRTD
// no (0) strictly below 0.2 kcal/mol in Ligand Efficiency (LE) Human (hMtase); yes (1) otherwise

Decide: is the reported value of Ligand Efficiency (LE) Human (hMtase) for Cc1ccc(S(=O)(=O)OC[C@H]2O[C@@H](n3cnc4c(N)ncnc43)[C@H](O)[C@@H]2O)cc1 equal to or greater than 0.2 kcal/mol? yes (1)

Decide: is the reported value of Ligand Efficiency (LE) Human (hMtase) for CSC[C@H]1O[C@@H](n2cnc3c(N)ncnc32)[C@H](O)[C@@H]1O equal to or greater than 0.2 kcal/mol? yes (1)

Decide: is the reported value of Ligand Efficiency (LE) Human (hMtase) for O=C(Cc1csc(SCC(=O)c2ccccc2)n1)Nc1cccc2nsnc12 equal to or greater than 0.2 kcal/mol? yes (1)

Decide: is the reported value of Ligand Efficiency (LE) Human (hMtase) for CCNC(=O)NCCSC[C@H]1O[C@@H](n2cnc3c(N)ncnc32)[C@H](O)[C@@H]1O equal to or greater than 0.2 kcal/mol? yes (1)

Decide: is the reported value of Ligand Efficiency (LE) Human (hMtase) for Nc1ncnc2c1ncn2[C@@H]1O[C@H](C(=O)N2CCN(CC(=O)Nc3cccc4c3CNC4=O)CC2)[C@@H](O)[C@H]1O equal to or greater than 0.2 kcal/mol? no (0)

====

target: SARS-CoV-2 nsp16/nsp10 (Severe acute respiratory syndrome coronavirus 2); assay: biochemical; details: 100 μM
// condition not met strictly below 30% in Percent inhibition at 100 μM, nsp16; condition met otherwise

Decide: is the reported value of Percent inhibition at 100 μM, nsp16 for Nc1ncnc2c1ncn2[C@@H]1O[C@H](COS(=O)(=O)NC(=O)c2ccccc2O)[C@@H](O)[C@H]1O [ZINC000028567519] equal to or greater than 30%? condition not met

Decide: is the reported value of Percent inhibition at 100 μM, nsp16 for O=C(C1CCc2sc(-c3ccncc3)nc2C1)N1CCc2c(nc[nH]c2=O)C1 (stereo not shown) [ZINC1772809556] equal to or greater than 30%? condition not met

Decide: is the reported value of Percent inhibition at 100 μM, nsp16 for NS(=O)(=O)c1ccc(NC2=NC(=O)C(CC(=O)O)S2)cc1 (stereo not shown) [ZINC000001797008] equal to or greater than 30%? condition not met

Decide: is the reported value of Percent inhibition at 100 μM, nsp16 for CN(C)c1nc2c(c(=O)[nH]1)CCN(C(=O)c1n[nH]cc1Cl)C2 [ZINC000072172639] equal to or greater than 30%? condition not met

Decide: is the reported value of Percent inhibition at 100 μM, nsp16 for O=C(CCc1nc2cc(Cl)ccc2[nH]1)N1CC[C@H](n2c(=O)[nH]c3cccnc32)C1 [ZINC1548405210] equal to or greater than 30%? condition not met

Decide: is the reported value of Percent inhibition at 100 μM, nsp16 for COc1cc(NC(=O)C2CCN(Cc3nc(-c4cccc(C)c4)no3)CC2)c(OC)cc1Cl [ZINC000030974583] equal to or greater than 30%? condition met

Decide: is the reported value of Percent inhibition at 100 μM, nsp16 for O=C(CCCn1cnc2ccccc2c1=O)Nc1ccc2ncnc(O)c2c1 [ZINC000096114839] equal to or greater than 30%? condition not met

Decide: is the reported value of Percent inhibition at 100 μM, nsp16 for COc1ccccc1CN1CC(C(=O)NCc2n[nH]c(=O)[nH]2)CCC1=O (stereo not shown) [ZINC000092001674] equal to or greater than 30%? condition not met

Decide: is the reported value of Percent inhibition at 100 μM, nsp16 for O=C(CCn1cncn1)N1CCC(c2nc3ccccc3s2)CC1 [Compound 009-436-708] equal to or greater than 30%? condition not met

Decide: is the reported value of Percent inhibition at 100 μM, nsp16 for O=C(CN1C(=O)c2ccccc2N2C(=O)c3ccccc3C12)N1CCc2c([nH]c3ccccc23)C1 (stereo not shown) [ZINC000604419204] equal to or greater than 30%? condition not met

Decide: is the reported value of Percent inhibition at 100 μM, nsp16 for Nc1ncnc2c1ncn2[C@@H]1O[C@H](COC(=O)c2ccc(S(=O)(=O)F)cc2)[C@@H](O)[C@H]1O [ZINC000048222133] equal to or greater than 30%? condition met

Decide: is the reported value of Percent inhibition at 100 μM, nsp16 for NS(=O)(=O)c1ccc(NC(=O)COC(=O)c2n[nH]c3ccccc23)cc1 [ZINC000005360401] equal to or greater than 30%? condition not met

Decide: is the reported value of Percent inhibition at 100 μM, nsp16 for O=C(CC1(C(=O)O)CC(c2ccc(F)cc2)=NO1)Nc1cccc(C(=O)O)c1 (stereo not shown) [ZINC000072406141] equal to or greater than 30%? condition met

Decide: is the reported value of Percent inhibition at 100 μM, nsp16 for O=C(CCn1cncn1)N1CCCC1c1nc2ccccc2s1 (stereo not shown) [Compound 009-447-345] equal to or greater than 30%? condition not met

Decide: is the reported value of Percent inhibition at 100 μM, nsp16 for Nc1ncnc2c1ncn2[C@@H]1O[C@H](C(=O)N2CCN(CC(=O)Nc3cccc4c3CNC4=O)CC2)[C@@H](O)[C@H]1O [ZINC000017654909] equal to or greater than 30%? condition met

Decide: is the reported value of Percent inhibition at 100 μM, nsp16 for CC(C(=O)NCCCn1ccnn1)c1n[nH]c(=O)c2ccccc12 (stereo not shown) [ZINC000215108606] equal to or greater than 30%? condition met
